Below is a list of entries, each paired with its recorded OD450 nm value.
# assayed.target: T1, human GPC3-His protein (human, UniProt P51654 25-559)
# T1 construct: Bought protein; also called human GPC3 protein; not shown: His tag
# experiment.description: ELISA, coated human GPC3, antibody 0.001 nM
Field: numeric (OD450). Do not append units.

F1.21.8 human-murine chimeric antibody (antibody, human IgG1, kappa, V domains shown) VH: EVQLQQSGPELVKPGASVKISCKTSGFLFTGHYMHWVKSSHGNILDWIGYIYPYNAISFYNQKFKGKATLTVDKSSNTAYMELRSLTSEDSAVYYCARGDYGNYVTAYWGQGTLVTVSA VL: DVLMTQTPLSLPVSLGDQASISCRSSQSIVHSSGNTYLEWYLQKPGQSPKLLIYKVSNRFSGVPDRFSGSGSGTDFTLKISRVEAEDLGVYYCFQGSHLPWTFGGGTKLDIKR    0.12

Please look at the following binder next.
Input line: Can you look up the measured OD450 nm of F4.13.7 human-murine chimeric antibody (antibody, human IgG1, kappa, V domains shown) VH: QVQLQQPGAELVKPGASVKLSCKASGYTFTNNWVHWVKQRPGQGLEWTGMIHPDSGSTIYNEKFQSKATLTVDKSSSTAYMQLSSLTSEDSAVYYCARGYYDSSSYYAMDYWGQGTSVTVSS VL: NIQMTQTTSSLSASLGDRVTISCSASQGIFNYLNWYQQKPDGTVKLLIYYTSSLHSGVPSRFSGSGSGTDYSLTISNLEPEDIATYYCQQYSKLPWTFGGGTKLEIKR for me?
Output line: 0.12

Numbers sourced from patent US20260116991A1.
